Kindly state % inhibition for each of the entries shown.
Test System: T1, recombinant human EGFR extracellular domain with 6xHis (human, UniProt P00533 25-645)
T1 construct: In-house produced; also called 6xHis EGFR ECD; soluble human EGFR ECD; not shown: 6xHis tag
Method Summary: SPR competition, competitor 1024
Numbers only, in %.

- Binder: "antibody 992 (antibody, human IgG1, kappa, V domains shown, Chimeric mouse/human IgG1 kappa; the VL entry includes the human kappa constant region) VH: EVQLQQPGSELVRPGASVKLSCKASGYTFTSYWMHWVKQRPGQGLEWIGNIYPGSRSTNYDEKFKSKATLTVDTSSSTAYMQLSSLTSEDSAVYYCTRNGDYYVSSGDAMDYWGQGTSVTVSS VL: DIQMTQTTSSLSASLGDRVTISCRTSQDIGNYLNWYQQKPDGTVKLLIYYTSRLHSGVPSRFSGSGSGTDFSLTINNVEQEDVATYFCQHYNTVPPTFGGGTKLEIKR"
  Units Of Measure: "%"
  % inhibition: -55

Consider the record given below.
Tell me % inhibition reported for antibody 1347 (antibody, human IgG1, kappa, V domains shown, Chimeric IgG1 kappa) VH: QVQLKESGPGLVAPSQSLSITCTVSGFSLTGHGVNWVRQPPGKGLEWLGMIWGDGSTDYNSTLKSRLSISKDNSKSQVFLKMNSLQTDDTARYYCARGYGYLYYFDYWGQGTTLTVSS VL: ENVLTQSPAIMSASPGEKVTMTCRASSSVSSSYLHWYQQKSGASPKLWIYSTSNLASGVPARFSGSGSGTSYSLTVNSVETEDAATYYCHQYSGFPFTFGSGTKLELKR
4
